Biological target: T1, EsCas13d, nuclease-dead (Eubacterium siraeum, UniProt B0MS50, R295A;H300A;R849A;H854A)
T1 sequence: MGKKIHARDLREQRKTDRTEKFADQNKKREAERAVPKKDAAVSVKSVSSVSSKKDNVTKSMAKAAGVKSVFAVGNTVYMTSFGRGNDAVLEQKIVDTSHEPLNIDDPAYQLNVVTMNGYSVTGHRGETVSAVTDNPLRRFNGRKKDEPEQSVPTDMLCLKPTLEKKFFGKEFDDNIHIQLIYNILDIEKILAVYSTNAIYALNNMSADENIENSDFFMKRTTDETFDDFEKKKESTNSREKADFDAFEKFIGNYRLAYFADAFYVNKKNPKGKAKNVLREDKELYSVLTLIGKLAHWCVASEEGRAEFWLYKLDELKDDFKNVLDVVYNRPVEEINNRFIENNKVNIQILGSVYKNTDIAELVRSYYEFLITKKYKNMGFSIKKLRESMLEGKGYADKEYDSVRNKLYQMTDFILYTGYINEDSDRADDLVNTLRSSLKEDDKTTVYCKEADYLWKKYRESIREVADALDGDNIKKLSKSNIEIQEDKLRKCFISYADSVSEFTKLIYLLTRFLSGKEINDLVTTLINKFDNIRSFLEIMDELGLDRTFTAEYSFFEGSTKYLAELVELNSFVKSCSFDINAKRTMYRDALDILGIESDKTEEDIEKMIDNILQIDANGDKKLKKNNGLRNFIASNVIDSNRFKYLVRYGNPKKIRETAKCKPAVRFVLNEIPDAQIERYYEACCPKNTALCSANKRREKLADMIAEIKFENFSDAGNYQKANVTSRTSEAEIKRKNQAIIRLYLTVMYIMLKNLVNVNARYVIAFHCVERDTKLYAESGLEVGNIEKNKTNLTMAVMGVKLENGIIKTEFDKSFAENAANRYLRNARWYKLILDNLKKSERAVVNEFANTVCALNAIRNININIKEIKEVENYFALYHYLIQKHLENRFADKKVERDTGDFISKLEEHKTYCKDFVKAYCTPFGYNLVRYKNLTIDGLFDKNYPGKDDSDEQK
Assay: crRNA (strand 1, pre-loaded); Mg2+; 40 mM Tris-HCl pH 7.5, 150 mM NaCl, 6 mM MgCl2, 1 mM DTT, 0.1% Tween-20, 0.2 mg/ml BSA; 25 C; 10 min per concentration, then washed
Conditions: tags: His6-TwinStrep-SUMO cleaved; N-terminal SNAP kept (SNAP-Surface 488); label: 3' end held by stalled T7 RNA polymerase
QUANTITY_MEASURED: Kd

>>> result("target 1 insC 3' of 18,insC 3' of 1 (mixed) RNA 1: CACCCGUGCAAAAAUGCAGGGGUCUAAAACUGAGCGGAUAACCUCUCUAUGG RNA 2: GGGAAUGGAUCCACAUCUACGAAUUCGUACCAUACGAGAGGUUAUCCGCUCACCCGAGAUCGGAAGAGCACACGU")
"29 nM"
>>> result("target 1 insA 3' of 2,insG 3' of 1 (mixed) RNA 1: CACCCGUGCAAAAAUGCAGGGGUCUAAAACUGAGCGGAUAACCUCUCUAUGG RNA 2: GGGAAUGGAUCCACAUCUACGAAUUCGUACCAUAGAGAGGUUAUCCGCUCAAGCCGAGAUCGGAAGAGCACACGU")
"8.6 nM"
